Recorded measurements of IC50, one per entry
TARGET OR TEST SYSTEM: recombinant GlPDE(aa588-1371) (Giardia intestinalis, UniProt A0A644EZ75)
PROTOCOL SUMMARY: biochemical
Assay type: biochemical
CONDITION PARAMETERS: read-out: Giardia PDE IC50

compound="Cc1ccc([N+](=O)[O-])cc1S(=O)(=O)N(C)C [BRL 50481]" target_or_test_system="recombinant GlPDE(aa588-1371) (Giardia intestinalis, UniProt A0A644EZ75)" attribute_measured=IC50 result="> 100 µM"

Ask | So what's the measured IC50 for this one? COCc1nc2c([nH]1)c(=O)n(C)c(=O)n2CC(C)C [8'-MM-IBMX, 8-methoxymethyl-IBMX]
Reply | > 100 µM

Ask | Would you kindly repeat that for CCOC(=O)c1cnc2c(cnn2CC)c1NN=C(C)C [Etazolate, etatolate] ?
Reply | ~100 µM

Ask | Please give the result for CN1CC(=O)N2[C@H](c3ccc4c(c3)OCO4)c3[nH]c4ccccc4c3C[C@@H]2C1=O [Tadalafil, tadalafil] too.
Reply | > 100 µM

Ask | // query: CCCCOc1cc(CC2CNC(=O)N2)ccc1OC (stereo not shown) [Ro20-1724]
Reply | > 100 µM

Ask | Repeat for the following compound: CN(C(=O)CCCOc1ccc2[nH]c(=O)ccc2c1)C1CCCCC1 [Cilostamide, cilostamide]
Reply | > 100 µM

Ask | Consider next the compound COc1ccc(C2CNC(=O)C2)cc1OC1CCCC1 (stereo not shown) [Rolipram, rolipram] in the same way.
Reply | > 100 µM

Ask | Further, for CCCOc1ccccc1-c1nc2nn[nH]c2c(=O)[nH]1 [Zaprinast, zaprinast] ?
Reply | > 100 µM

Ask | Input C[C@H](Cc1nc2c(cnn2-c2ccccc2Cl)c(=O)[nH]1)C(F)(F)F [BAY 73–6691]
Reply | > 100 µM

Ask | Same lookup for COc1ccc(C2=NN(C3CCCCCC3)C(=O)[C@@H]3CC=CC[C@H]23)cc1OCCCCOc1ccc(-c2nn[nH]n2)cc1 [NPD-001] , please.
Reply | 0.8 µM

* * *

TARGET OR TEST SYSTEM: recombinant GlPDE(aa588-1371) (Giardia intestinalis, UniProt A0A644EZ75)
PROTOCOL SUMMARY: biochemical
Format: biochemical
CONDITION PARAMETERS: read-out: Giardia PDE IC50
pIC50: −log10 of the molar value.
Listed next: entries and their corresponding pIC50.

Here is how some compounds turned out for pIC50.
compound=CC(C)Cn1c(=O)n(C)c(=O)c2[nH]cnc21 result="< 4.00"
compound=COc1cc2ncnc(N3CC[C@@H](Oc4cnc5ccccc5n4)C3)c2cc1OC result=~4.00

Ask | Request - read-out pIC50 | tested on recombinant GlPDE(aa588-1371) (Giardia intestinalis, UniProt A0A644EZ75) | compound CCCCCC[C@@H]([C@@H](C)O)n1cnc2c(N)ncnc21 (racemic) [EHNA, erythro-9-(2-hydroxy-3-nonyl)adenine]
Reply | < 4.00
